# system-tested: Rabbit Liver Esterase (E.C. 3.1.1.1) (Oryctolagus cuniculus)
# Sequence (P12337 19-565): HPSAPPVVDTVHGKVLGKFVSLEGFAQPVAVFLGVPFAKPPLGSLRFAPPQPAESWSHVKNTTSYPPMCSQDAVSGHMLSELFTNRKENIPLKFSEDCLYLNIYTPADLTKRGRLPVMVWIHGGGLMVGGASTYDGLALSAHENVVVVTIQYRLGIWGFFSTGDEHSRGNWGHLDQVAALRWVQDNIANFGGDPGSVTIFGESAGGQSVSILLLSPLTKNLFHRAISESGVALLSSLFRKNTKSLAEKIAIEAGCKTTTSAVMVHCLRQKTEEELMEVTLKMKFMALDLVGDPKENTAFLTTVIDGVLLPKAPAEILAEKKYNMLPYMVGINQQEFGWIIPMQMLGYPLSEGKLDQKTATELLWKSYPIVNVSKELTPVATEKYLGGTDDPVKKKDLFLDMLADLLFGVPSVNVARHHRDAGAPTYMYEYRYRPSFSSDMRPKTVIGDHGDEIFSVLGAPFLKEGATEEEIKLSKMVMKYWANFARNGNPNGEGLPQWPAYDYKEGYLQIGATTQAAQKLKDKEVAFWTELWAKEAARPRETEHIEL

# entry-smiles, system-tested, uom, Ki
measured = [
    ("O=C(/C=C/c1cccc(O)c1)C(F)(F)F", "Rabbit Liver Esterase (E.C. 3.1.1.1) (Oryctolagus cuniculus)", "nM", 160),
]
